Assay target: Eukaryotic peptide chain release factor GTP-binding subunit (Saccharomyces cerevisiae, UniProt P05453)
Sequence (P05453 whole entry): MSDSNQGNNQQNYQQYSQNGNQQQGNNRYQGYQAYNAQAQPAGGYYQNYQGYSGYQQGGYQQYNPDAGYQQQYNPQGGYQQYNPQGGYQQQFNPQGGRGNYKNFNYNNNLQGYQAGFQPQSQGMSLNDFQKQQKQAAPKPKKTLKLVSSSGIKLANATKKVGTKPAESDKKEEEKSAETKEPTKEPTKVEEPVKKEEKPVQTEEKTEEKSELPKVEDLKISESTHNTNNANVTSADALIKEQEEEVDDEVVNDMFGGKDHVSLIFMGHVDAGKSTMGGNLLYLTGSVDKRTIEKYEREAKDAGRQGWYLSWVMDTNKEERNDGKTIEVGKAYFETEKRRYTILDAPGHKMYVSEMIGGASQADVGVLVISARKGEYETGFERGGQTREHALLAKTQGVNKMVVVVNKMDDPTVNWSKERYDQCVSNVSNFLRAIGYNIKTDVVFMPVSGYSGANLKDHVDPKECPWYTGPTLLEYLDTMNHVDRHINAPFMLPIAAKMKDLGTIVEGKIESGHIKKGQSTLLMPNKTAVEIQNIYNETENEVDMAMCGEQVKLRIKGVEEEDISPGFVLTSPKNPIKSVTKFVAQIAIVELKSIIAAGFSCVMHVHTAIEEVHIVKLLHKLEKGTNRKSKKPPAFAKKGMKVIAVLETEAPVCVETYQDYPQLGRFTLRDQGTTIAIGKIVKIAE
Procedure details: Inhibition of polyhistidine tagged yeast prion protein Sup35 expressed in Escherichia coli BL21 (DE3) assessed as inhibition of amyloid polymerization by thioflavin T fluorescence assay relative to untreated control
Experimental endpoint: IC50 (nM)

| Smiles representation | Measure unit | Endpoint value |
| --- | --- | --- |
| O=C1C(I)=CC(=C(c2ccccc2C(=O)O)C2C=C(I)C(=O)C(I)=C2)C=C1I | nM | 2500 |
